- study_target: T1, human Trop-2 expressed on cell surface (human, UniProt P09758 27-323)
- T1 sequence (looked up): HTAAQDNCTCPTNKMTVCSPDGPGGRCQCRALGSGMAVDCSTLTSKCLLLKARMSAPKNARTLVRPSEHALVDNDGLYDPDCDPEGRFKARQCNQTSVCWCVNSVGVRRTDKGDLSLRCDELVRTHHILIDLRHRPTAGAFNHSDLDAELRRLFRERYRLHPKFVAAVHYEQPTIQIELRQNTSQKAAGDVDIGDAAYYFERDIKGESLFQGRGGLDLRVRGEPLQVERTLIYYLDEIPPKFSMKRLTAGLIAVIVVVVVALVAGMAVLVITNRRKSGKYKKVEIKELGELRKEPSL
- experiment_summary: cell-based or functional assay
measured_quantity: Internalization %, MCF-7, 0.25 µg/ml, 4 h (%)
Kindly answer with a numeric value in %, unit omitted.

Example entries begin here.
65D5 (antibody, V domains shown, Rabbit-derived clone; LEM construct: VH + rabbit IgG CH1 + human IgG1 CH2-CH3) VH: QEQLKESGGGLVQPGGSLKLSCKASGFDFNAYGVSWVRQAPGKGLEWIAYIYPAFHNTYYATWVNGRFTISSHNAQNTLYLQLNTLTAADTATYFCARDAGTTDYNFNLWGPGTLVTVSS VL: DIVMTQTPASVSEPVGGTVTIKCQASQSISSYLAWYQQKPGQPPKLLIYEATKLTSGVSSRFSGSGYGTEFTLTISGVECADAATYYCQQALTVGDVDNPFGGGSEVVVK; 41
9D7 (antibody, V domains shown, Rabbit-derived clone; LEM construct: VH + rabbit IgG CH1 + human IgG1 CH2-CH3) VH: QSLEESGGDLVQPGASLTLTCKASGFDLNNYSILWVRQAPGKGLEWIGCIYISGGSTYYANWAKGRFAISKTSSTTVTLQMTSLTAADTATYFCARDDGTASYYLNLWGPGTLVTVSS VL: YDMTQTPASVSEPVGGTVTIKCQASEDIYKLLAWYQQKPGQPPKLLIYAASDLESGVPSRFKGRGSGTDYTLTISDLECADAATYYCQQAYTIGNIDNSFGGGTEVVVK; 69

Read off the recorded Internalization %, MCF-7, 0.25 µg/ml, 4 h for 63H3 (antibody, V domains shown, Rabbit-derived clone; LEM construct: VH + rabbit IgG CH1 + human IgG1 CH2-CH3) VH: QEQLKESGGGLVQPGGSLKLSCKASGFDFNSYGVSWVRQAPGKGLEWIAYIYPAFHNAYYANWVNGRFTISSDNAQNTVDLQLNSLTAADTATYFCARDAGGTDYNYNLWGPGTLVTVSS VL: DVVMTQTPASVEVAVGGTVTLKCQASEDIESYSAWYQQKPGQPPNLLIYEASKLASGVSSRFSGSGYGTEFTLTISGVECADAATYYCQQALTIGNVDNPFGGGSEVVVR
36

Entry source: patent US20250206841A1
